For each record, write down the corresponding MIC.
test system: Staphylococcus aureus; assay: Antibacterial activity against methicillin-sensitive Staphylococcus aureus after 18 to 20 hrs by microbroth dilution method; assay type: functional
Number in µg/mL, nothing else.

# lookup: MIC of "O=[N+]([O-])c1ccc(S(=O)(=O)Nc2ccc(F)cc2)c([N+](=O)[O-])c1"
16

# lookup: MIC of "CCN(c1ccccc1OC)S(=O)(=O)c1ccc([N+](=O)[O-])cc1[N+](=O)[O-]"
8

# lookup: MIC of "C#CCN(Cc1cccc(OC)c1)S(=O)(=O)c1ccc([N+](=O)[O-])cc1[N+](=O)[O-]"
16

# lookup: MIC of "O=[N+]([O-])c1ccc(S(=O)(=O)Nc2ccccc2)c([N+](=O)[O-])c1"
8

# lookup: MIC of "COc1cccc(NS(=O)(=O)c2ccc([N+](=O)[O-])cc2[N+](=O)[O-])c1"
16

# lookup: MIC of "CN(Cc1ccccc1)S(=O)(=O)c1ccc([N+](=O)[O-])cc1[N+](=O)[O-]"
8

# lookup: MIC of "C#CCN(CC)S(=O)(=O)c1ccc([N+](=O)[O-])cc1[N+](=O)[O-]"
16

# lookup: MIC of "C#CCN(C)S(=O)(=O)c1ccc([N+](=O)[O-])cc1[N+](=O)[O-]"
8

====

For each record, write down the corresponding MIC.
test system: Staphylococcus aureus; test: Antibacterial activity against methicillin-sensitive Staphylococcus aureus after 18 to 20 hrs by microbroth dilution method; format: functional
Number in µg/mL, nothing else.

# lookup: MIC of "C#CCN(Cc1ccc(OC)cc1)S(=O)(=O)c1ccc([N+](=O)[O-])cc1[N+](=O)[O-]"
8

# lookup: MIC of "C#CCN(Cc1ccccc1)S(=O)(=O)c1ccc([N+](=O)[O-])cc1[N+](=O)[O-]"
4

====

For each record, write down the corresponding MIC.
tested on: Staphylococcus aureus; test: Antibacterial activity against methicillin-sensitive Staphylococcus aureus after 18 to 20 hrs by microbroth dilution method; assay type: functional
Number in µg/mL, nothing else.

# lookup: MIC of "COc1ccccc1N(C)S(=O)(=O)c1ccc([N+](=O)[O-])cc1[N+](=O)[O-]"
16

# lookup: MIC of "C=CCN(c1ccccc1OC)S(=O)(=O)c1ccc([N+](=O)[O-])cc1[N+](=O)[O-]"
8

# lookup: MIC of "C#CCN(c1cccc(OC)c1)S(=O)(=O)c1ccc([N+](=O)[O-])cc1[N+](=O)[O-]"
4

# lookup: MIC of "COc1ccccc1NS(=O)(=O)c1ccc([N+](=O)[O-])cc1[N+](=O)[O-]"
8

# lookup: MIC of "C#CCN(c1ccccc1OC)S(=O)(=O)c1ccc([N+](=O)[O-])cc1[N+](=O)[O-]"
4

# lookup: MIC of "O=[N+]([O-])c1ccc(S(=O)(=O)N(CCCO)Cc2ccccc2)c([N+](=O)[O-])c1"
16

# lookup: MIC of "CCN(c1cccc(OC)c1)S(=O)(=O)c1ccc([N+](=O)[O-])cc1[N+](=O)[O-]"
8

# lookup: MIC of "COc1cccc(N(C)S(=O)(=O)c2ccc([N+](=O)[O-])cc2[N+](=O)[O-])c1"
8

# lookup: MIC of "C=CCN(c1cccc(OC)c1)S(=O)(=O)c1ccc([N+](=O)[O-])cc1[N+](=O)[O-]"
8
